B1: ISL2 (parent)
chain: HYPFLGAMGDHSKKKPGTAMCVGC

Variants of: B1
Assay: protein stability index of a GFP-peptide fusion (GPS, HEK-293T) (PSI 1-6); higher = more stable;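 note: lentivirally expressed fusions sorted by FACS into six bins by GFP to DsRed ratio, PSI derived from sequencing read proportions per bin multiplied by bin number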
Settings: c terminus: a fixed tail appended
Label true (1) when protein stability index >= 3; otherwise false (0).

Hi team, for `A7P` , is the recorded protein stability index at or above 3?
false (0)

Check if protein stability index >= 3 (inclusive). Item: `V22W`
false (0)

Identify whether the reported protein stability index of the following variant is 3 or greater: `D10M`
false (0)

Please indicate if the recorded protein stability index for `S12D` meets or exceeds 3.
true (1)

Does protein stability index meet or surpass 3 for `S12A` ?
false (0)

I'd appreciate it if you could say whether `K14C` has protein stability index at least equal to 3.
true (1)

Reported protein stability index at or above 3? `K13Y`
false (0)

Given the entry `K15I` , answer whether its protein stability index meets or surpasses 3.
false (0)

In plain terms: is recorded protein stability index at least 3 for `T18H` ?
false (0)

API: above_or_equal(metric=protein stability index, cutoff=3) for item `T18W`
false (0)

# bool: protein stability index of `C24I` >= 3
false (0)

hey, is protein stability index for this one >= 3? `D10G`
false (0)

Is it the case that `Y2P` has protein stability index reaching or exceeding 3?
true (1)

Hi, just wondering whether `C21R` shows protein stability index of 3 or higher.
false (0)

Answer whether protein stability index of `A19N` is greater than or equal to 3.
false (0)

Assess whether reported protein stability index for `H1V` sits at 3 or higher.
false (0)

Is it the case that `Y2A` has protein stability index reaching or exceeding 3?
true (1)

Given the entry `K13S` , answer whether its protein stability index meets or surpasses 3.
false (0)

Say whether `S12R` shows protein stability index of 3 or more.
false (0)

Would you say `P16T` shows protein stability index at minimum 3?
false (0)

Please check the record `M20L` and state if its protein stability index is at or above 3.
false (0)

Decide: is the reported value of protein stability index for `P16S` equal to or greater than 3?
false (0)

Is reported protein stability index greater than or equal to 3 here: `P3C`
false (0)

Decide: is the reported value of protein stability index for `M8I` equal to or greater than 3?
false (0)

Reported protein stability index reaches at least 3 for `D10W` ?
false (0)

Does protein stability index meet or surpass 3 for `H11K` ?
false (0)

Exam item: decide whether the reported protein stability index for `A7M` is at least 3.
false (0)

protein stability index >= 3 for `Y2K` ?
false (0)

Check this variant for protein stability index at or above 3: `P3T`
false (0)

API: above_or_equal(metric=protein stability index, cutoff=3) for item `H1A`
true (1)

Dear colleague, could you confirm whether `V22Q` has protein stability index at or above 3?
true (1)

Record `P3W` ; criterion: protein stability index no lower than 3. Met?
false (0)

# check: protein stability index of `G9Q` is greater than or equal to 3
false (0)

Determine whether this variant has protein stability index no lower than 3: `H11T`
false (0)

Would you say `G6D` shows protein stability index at minimum 3?
true (1)

Determine whether measured protein stability index meets or exceeds 3 for `G9W`
false (0)

Does the variant `H1G` have recorded protein stability index that is 3 or more?
false (0)

Can `K15W` be said to have protein stability index at or above 3?
false (0)

Say whether `V22L` shows protein stability index of 3 or more.
false (0)

Please check the record `M8H` and state if its protein stability index is at or above 3.
false (0)

Does the reported protein stability index for `T18A` fall at or above the 3 mark?
false (0)

Exam item: decide whether the reported protein stability index for `T18S` is at least 3.
false (0)

Confirm if protein stability index reported for the variant `F4M` is 3 or above.
true (1)

Decide: is the reported value of protein stability index for `Y2H` equal to or greater than 3?
false (0)

Could you verify whether the entry `V22K` shows protein stability index of no less than 3?
true (1)

Exam item: decide whether the reported protein stability index for `P3F` is at least 3.
false (0)

Would you say `G9R` shows protein stability index at minimum 3?
false (0)

Is the recorded value of protein stability index equal to or greater than 3 for this variant? `L5R`
false (0)

Record `L5Q` ; criterion: protein stability index no lower than 3. Met?
true (1)

API: above_or_equal(metric=protein stability index, cutoff=3) for item `M20V`
false (0)

I'd appreciate it if you could say whether `Y2G` has protein stability index at least equal to 3.
true (1)

Does the variant `A19C` have recorded protein stability index that is 3 or more?
true (1)

Record `G6E` ; criterion: protein stability index no lower than 3. Met?
true (1)

Hello, I need to know if `H1P` has measured protein stability index not below 3. Thanks!
false (0)

Does the reported protein stability index for `K14Q` fall at or above the 3 mark?
false (0)

Please indicate if the recorded protein stability index for `H1T` meets or exceeds 3.
false (0)

Entry `C24R` : is its protein stability index no less than 3?
true (1)

Test whether the variant `G6T` records protein stability index of 3 or higher.
false (0)

Could you please find out whether `C24P` has protein stability index that meets 3 or exceeds it?
true (1)

Is reported protein stability index greater than or equal to 3 here: `G23D`
true (1)

Hi team, for `H11C` , is the recorded protein stability index at or above 3?
false (0)

Check the entry `F4E` : does protein stability index equal or exceed 3?
true (1)

Does protein stability index meet or surpass 3 for `M8S` ?
false (0)

Determine whether measured protein stability index meets or exceeds 3 for `G9E`
true (1)

Threshold query (protein stability index >= 3) on `G6I`
false (0)

Does the variant `F4P` have recorded protein stability index that is 3 or more?
true (1)

Exam item: decide whether the reported protein stability index for `G17T` is at least 3.
false (0)

Determine whether measured protein stability index meets or exceeds 3 for `G6L`
false (0)

Quick check, protein stability index >= 3? `C21I`
false (0)

Hi, just wondering whether `K14L` shows protein stability index of 3 or higher.
false (0)

Tell me whether protein stability index is at least 3 here: `Y2W`
false (0)

Can `G6P` be said to have protein stability index at or above 3?
false (0)

Does protein stability index meet or surpass 3 for `H1Y` ?
false (0)

Is protein stability index at least 3? Consider `G9F`
false (0)

// inclusive: protein stability index at least 3? input: `K13I`
false (0)

Quick check, protein stability index >= 3? `G23R`
false (0)

Please tell me: is the variant `C21N` at or over 3 in terms of protein stability index?
true (1)

Is reported protein stability index greater than or equal to 3 here: `P16F`
false (0)

State whether the measured protein stability index reaches 3, counting equality as reaching it, for `K15Q`
false (0)

Is reported protein stability index greater than or equal to 3 here: `D10Y`
false (0)

Is protein stability index for `P3Y` at or above 3?
false (0)

Quick check, protein stability index >= 3? `M8L`
true (1)

Can `P16K` be said to have protein stability index at or above 3?
false (0)

# bool: protein stability index of `H1D` >= 3
true (1)

Is protein stability index for `G17K` at or above 3?
true (1)
